Origin of measurements: ChEMBL document CHEMBL4706703

Target: MAO-A (Homo sapiens, UniProt P21397)
Sequence (P21397 whole entry): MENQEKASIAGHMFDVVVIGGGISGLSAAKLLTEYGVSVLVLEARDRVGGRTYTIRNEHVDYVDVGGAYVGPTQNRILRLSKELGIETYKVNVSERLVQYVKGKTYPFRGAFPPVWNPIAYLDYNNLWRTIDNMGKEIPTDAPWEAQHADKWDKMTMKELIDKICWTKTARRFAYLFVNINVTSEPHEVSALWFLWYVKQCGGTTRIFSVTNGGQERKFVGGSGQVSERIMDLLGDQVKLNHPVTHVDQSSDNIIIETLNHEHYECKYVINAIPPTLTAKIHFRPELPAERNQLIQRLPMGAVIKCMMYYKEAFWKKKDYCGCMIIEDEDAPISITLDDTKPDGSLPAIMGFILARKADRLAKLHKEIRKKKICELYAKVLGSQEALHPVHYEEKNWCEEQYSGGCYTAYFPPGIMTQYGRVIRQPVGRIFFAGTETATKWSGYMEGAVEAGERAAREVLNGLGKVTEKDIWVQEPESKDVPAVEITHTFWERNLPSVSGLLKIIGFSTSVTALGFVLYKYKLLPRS
Assay: Inhibition of recombinant human MAOA at 10 uM using kynuramine as substrate preincubated for 30 mins followed by substrate addition and measured after 30 mins by fluorescence assay relative to control
Settings: probe kynuramine, time 60 min
Entries and their inhibition at 0.5 h, 10 µM

Below, each entry is followed by its recorded inhibition at 0.5 h, 10 µM result.
COc1cc2c(cc1OC)C(Cc1cccc(O)c1N1CCCCC1)OC2=O (stereo not drawn) | < 5%
COc1cc2c(cc1OC)/C(=C/c1cccc(O)c1N1CCN(C)CC1)OC2=O | < 5%
CCN(CC)c1cc(/C=C2\OC(=O)c3cc(OC)c(OC)cc32)ccc1O | < 5%
COc1cc2c(cc1OC)C(Cc1ccc(N3CCCC3)c(O)c1)OC2=O (stereo not drawn) | < 5%
COc1cc2c(cc1OC)/C(=C/c1cccc(O)c1N1CCCC1)OC2=O | < 5%
COc1cc2c(cc1OC)C(Cc1cccc(O)c1N1CCOCC1)OC2=O (stereo not drawn) | < 5%
COc1cc2c(cc1OC)/C(=C\c1cccc(O)c1N1CCCC1)OC2=O | < 5%
CCN(CC)c1ccc(/C=C2\OC(=O)c3cc(OC)c(OC)cc32)cc1O | < 5%

Turning now to a further record.
So what inhibition at 0.5 h, 10 µM did COc1cc2c(cc1OC)/C(=C\c1cccc(O)c1N1CCCCC1)OC2=O get with MAO-A (Homo sapiens, UniProt P21397)?
< 5%
